- test_target: human CCR6 (Homo sapiens)
- Construct: expressed in transfected cells; host or cells: HEK-293
- Sequence (P51684 whole entry): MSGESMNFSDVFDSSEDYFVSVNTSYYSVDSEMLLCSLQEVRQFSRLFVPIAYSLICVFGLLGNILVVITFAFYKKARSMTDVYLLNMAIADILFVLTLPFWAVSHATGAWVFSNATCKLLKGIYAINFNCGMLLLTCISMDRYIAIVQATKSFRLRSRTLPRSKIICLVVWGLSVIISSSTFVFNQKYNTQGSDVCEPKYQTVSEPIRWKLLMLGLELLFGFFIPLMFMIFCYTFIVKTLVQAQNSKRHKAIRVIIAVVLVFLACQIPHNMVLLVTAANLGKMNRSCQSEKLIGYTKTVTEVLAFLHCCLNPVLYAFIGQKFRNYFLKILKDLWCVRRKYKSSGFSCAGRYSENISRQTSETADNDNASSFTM
- method_summary: FLIPR assay (inhibition of CCL20-induced calcium signal)
- Format: cell-based
- test_settings: HEK-293 cells expressing human CCR6; mean values where determined several times; read-out: FLIPR IC50
property: IC50

In [3]: df
Out[3]:
                                    molecule  property  meas_value
 0  CC(C)c1ccc([C@](O)(c2cncc(CCC3(O)CCc4cccnc43)c2)C2(C)CN(C)C2)cc1 (some centres unmarked)      IC50     80.6 nM
 1  CC(C)c1ccc([C@](O)(c2cncc(N3CC[C@H](F)C3)c2)C2(C)CN(C)C2)cc1      IC50     61.6 nM
 2  CC(C)c1ccc([C@](O)(c2cncc(-c3nc(CN4CCOCC4)no3)c2)C2(C)CN(C)C2)cc1      IC50      231 nM
 3  CC(C)c1ccc([C@](O)(c2cncc(N3CC4(CC5(CCC5)C4)OC3=O)c2)C2(C)CN(C)C2)cc1      IC50     29.9 nM
 4  CC(C)c1ccc([C@](O)(c2cnnc(N3CCC(F)(F)C3)c2)C2(C)CN(C)C2)cc1      IC50     85.3 nM
 5  CC(C)c1ccc([C@](O)(c2cncc(-c3noc(C4CCNCC4)n3)c2)C2(C)CN(C)C2)cc1      IC50      321 nM
 6  Cc1ncc(C(C)(O)C#Cc2cncc([C@@](O)(c3ccc(C(C)C)cc3)C3(C)CN(C)C3)c2)s1 (some centres unmarked)      IC50     23.3 nM
 7  CC(C)c1ccc([C@](O)(c2cncc(-c3noc([C@H](O)C4CCCCC4)n3)c2)C2(C)CN(C)C2)cc1      IC50     20.5 nM
 8  CN1CC(C)(C(O)(c2ccc(OC(F)(F)F)cc2)c2cncc(-n3cccn3)c2)C1 (centres unmarked)      IC50     90.6 nM
 9  CC(=O)N1CCC(c2cnc(-c3cncc([C@@](O)(c4ccc(C(C)C)cc4)C4(C)CN(C)C4)c3)nc2)CC1      IC50      242 nM
10  CC(C)c1ccc([C@](O)(c2cncc(-c3noc(CC(C)(C)O)n3)c2)C2(C)CN(C)C2)cc1      IC50     74.7 nM
11  CC(C)c1ccc([C@](O)(c2cncc(C#CC(C)(O)c3cccc(F)c3)c2)C2(C)CN(C)C2)cc1 (some centres unmarked)      IC50     18.7 nM
12  Cc1cc(C(O)CCc2cncc([C@@](O)(c3ccc(C(C)C)cc3)C3(C)CN(C)C3)c2)nn1C (some centres unmarked)      IC50      627 nM
13  CN1CC(C#N)(C(O)(c2ccc(OC(F)(F)F)cc2)c2cncc(N3CCCC3)c2)C1 (centres unmarked)      IC50      147 nM
14  CC(C)c1ccc([C@](O)(c2cncc(N3C[C@@H]4C[C@H]3CO4)c2)C2(C)CN(C)C2)cc1      IC50      123 nM
15  CCC(=O)NC(C)(C)Cc1nc(-c2cncc([C@@](O)(c3ccc(C(C)C)cc3)C3(C)CN(C)C3)c2)no1      IC50      129 nM
16  Cc1cccc(C(C)(O)C#Cc2cncc([C@@](O)(c3ccc(C(C)C)cc3)C3(F)CN(C)C3)c2)n1 (some centres unmarked)      IC50     54.3 nM
17  CC(C)c1ccc([C@](O)(c2cncc(COC3CCCC3)c2)C2(C)CN(C)C2)cc1      IC50     17.7 nM
18  CC(C)c1ccc([C@](O)(c2cncc(-c3noc(C4(C)CCNCC4)n3)c2)C2(C)CN(C)C2)cc1      IC50      271 nM
19  CN1CC(C)(C(O)(c2ccc(C3CCC3)cc2)c2cncc(N3CCCC3)c2)C1 (centres unmarked)      IC50     36.8 nM
20  CC(C)c1ccc([C@](O)(c2cncc(-c3noc(C4CCC(=O)NC4)n3)c2)C2(C)CN(C)C2)cc1 (some centres unmarked)      IC50      184 nM
21  CC(C)c1ccc([C@](O)(c2cncc(-c3noc(CC4(O)CCCCC4)n3)c2)C2(C)CN(C)C2)cc1      IC50     38.5 nM
22  COCCOC(=O)N1CCC(c2nc(-c3cncc([C@@](O)(c4ccc(C(C)C)cc4)C4(C)CN(C)C4)c3)no2)CC1      IC50     71.5 nM
23  CC(C)c1ccc([C@](O)(c2cncc(-c3noc(CN4CC(=O)N(C)C4=O)n3)c2)C2(C)CN(C)C2)cc1      IC50      382 nM
24  CC(=O)N1CC[C@H](c2nc(-c3cncc([C@@](O)(c4ccc(C(C)C)cc4)C4(C)CN(C)C4)c3)no2)[C@H](C)C1 (mixture of isomers)      IC50     88.9 nM
25  CC(=O)N1CCCC(O)(c2nc(-c3cncc([C@@](O)(c4ccc(C(C)C)cc4)C4(C)CN(C)C4)c3)no2)C1 (some centres unmarked)      IC50      201 nM
26  CC(=O)N1CCC(CCc2cncc([C@@](O)(c3ccc(C(C)C)cc3)C3(C)CN(C)C3)c2)CC1      IC50      107 nM
27  CC(C)c1ccc([C@](O)(c2cncc(-c3noc([C@@H]4CCCC(=O)N4)n3)c2)C2(C)CN(C)C2)cc1      IC50      164 nM
28  CC(C)c1ccc([C@](O)(c2cncc(C#C[C@@]3(O)CCN(C)C3=O)c2)C2(C)CN(C)C2)cc1      IC50      426 nM

The origin of these recorded values is patent US12617773B2.
